Cited source for all entries: PubChem BioAssay (NCI)

# Test system: A498 renal
# Experimental protocol: NCI tumour cell line growth inhibition, 48 h
Each entry below lists one item and its recorded GI50 value.

O=C1OCC(c2ccc(O)c(O)c2)=C1c1cc(O)c(O)c(O)c1 : > 100 µM
O=S(=O)(Nc1ccc(-c2nc(-c3cccc(OCCN4CCOCC4)c3)c(-c3ccnc(Br)c3)[nH]2)cc1)c1ccccc1 : 1.53 µM
C[C@]12CC[C@H](O)CC1=CC[C@@H]1[C@@H]2CC[C@]2(C)C(=O)/C(=C/c3cccc(OCCCn4ccnc4)c3)C[C@@H]12 : 20.5 µM

QUERY: Would you please give the reported GI50 of COc1ccc(-c2cc3c4c(nc5ccccc5c4c2)CC(c2cc(OC)c(OC)c(OC)c2)O3)cc1 (centres undefined) with A498 renal?
RESULT: 3.39 µM

---

# Test system: 786-0 renal
# Experimental protocol: NCI tumour cell line growth inhibition, 48 h
Result type: GI50

COc1ccc(/C=C2/CN(C(=O)c3ccccc3F)C/C(=C\c3ccc(OC)cc3)C2=O)cc1 : 2.04 µM

QUERY: Determine its reported GI50: COC1=CC(c2ccc[nH]2)=N/C1=C\c1[nH]c(C)c(C(=O)CCC(=O)Oc2ccc3c(c2)CCC2C3CC[C@]3(C)C(=O)CC[C@@H]23)c1C (some centres not stated)
RESULT: 6 µM

QUERY: Determine its reported GI50: CO/N=C(\c1ccccc1)c1cnn(-c2ccccc2)c1N
RESULT: > 25 µM

QUERY: Determine its reported GI50: CCCOC(=O)N[C@H]1CCc2c(Br)c(OC)c(OC)c(OC)c2-c2ccc(SC)c(=O)cc21
RESULT: 0.0407 µM

QUERY: Determine its reported GI50: CC1(C)CCC(S(=O)(=O)c2ccc3c(c2)/C(=N\O)c2cc(S(=O)(=O)N4CCC(O)(c5cccc(C(F)(F)F)c5)CC4)ccc2-3)CC1
RESULT: 0.145 µM

QUERY: Determine its reported GI50: COCCNCC(O)Cn1c2ccc(Cl)cc2c2cc(Cl)ccc21 (configuration not stated)
RESULT: 1.8 µM

---

# Test system: HL-60(TB) leukemia
# Experimental protocol: NCI tumour cell line growth inhibition, 48 h
Result type: TGI (µM)
Enter your answer as a number in µM; do not include the unit.

CN(C(=O)C1CCCCC1)c1ccccc1I(=O)=O : 36.8
C/C(=N\Nc1nc2cc(C)ccc2s1)c1ccccn1 : 0.699

# ---- query compound ----
QUERY: Determine its reported TGI: OCC(O)CC[CH2][Sn]([c]1ccccc1)([c]1ccccc1)[c]1ccccc1 (configuration not stated)
RESULT: 35.3

---

# Test system: SF-295 CNS
# Experimental protocol: NCI tumour cell line growth inhibition, 48 h; in the data active = GI50 below about 0.43 µM; inactive = the rest
Would you mind answering with one of these outcomes? active, inactive

A selection of reference data follows.
[Cu+2].[Cu+2].[O-]c1ccccc1C=Nc1ccccc1[O-].[O-]c1ccccc1C=Nc1ccccc1[O-] : inactive
CC(=O)[CH-]C(=O)c1ccccc1.CC(=O)[CH-]C(=O)c1ccccc1.[Nd+3].[OH-].[OH3+] : inactive
CC1(C)CCC(S(=O)(=O)c2ccc3c(c2)/C(=N\O)c2cc(S(=O)(=O)N4CCC(O)(c5cccc(C(F)(F)F)c5)CC4)ccc2-3)CC1 : active

QUERY: Hello, I am checking results. What call was entered for CN(C(=O)C1CCCCC1)c1ccccc1I(=O)=O ?
RESULT: inactive

QUERY: Hello, I am checking results. What call was entered for O=C1C=C(SCCO)C(=O)c2ccccc21 ?
RESULT: inactive

---

Each entry below lists one item and its recorded TGI value.
# System: M19-MEL melanoma
# Experimental protocol: NCI tumour cell line growth inhibition, 48 h
Enter your answer as a number in µM; do not include the unit.

# example entries with known answers
COc1cc2c(cc1O)[C@H](C)C(c1ccc(Cl)cc1)O2 (some centres undefined) : 33
COC1/C=C\C=C(/C)C(=O)NC2=CC(=O)C(NCCCl)=C(CC(C)CC(OC)C(O)C(C)/C=C(/C)C1OC(N)=O)C2=O (centres undefined) : 1.57

QUERY: Would you please give the reported TGI of CC1=C/C(=C(\c2ccc(N(C)C)cc2)c2ccc([N+](C)(C)C)cc2)C=CC1=[N+](C)C with M19-MEL melanoma?
RESULT: 20.3

---

# System: MCF7 breast
# Experimental protocol: NCI tumour cell line growth inhibition, 48 h
Result type: TGI

# example entries with known answers
COc1cc(-c2c3c(cn2S(=O)(=O)c2ccccc2)-c2nc(N)sc2CC3)cc(OC)c1OC : 21.4 µM
CN(NC(=O)c1ccco1)C1=NCCCCN1 : > 100 µM
CCOn1cc(C[C@@]2(O)C(=O)OC3[C@@H](O)CO[C@@]32O)c2ccccc21 (some centres undefined) : > 100 µM
CC1(C)CCC(S(=O)(=O)c2ccc3c(c2)/C(=N\O)c2cc(S(=O)(=O)N4CCC(O)(c5cccc(C(F)(F)F)c5)CC4)ccc2-3)CC1 : 0.0485 µM
CC(C)CN1CN(c2ccccc2)C2(CCN(CC(C)(c3ccc(F)cc3)C3OCCO3)CC2)C1=O (centres undefined) : 13.8 µM

QUERY: Determine its reported TGI: COc1ccc(C[C@@H]2CN(C(=O)c3ccccc3)[C@H](Cc3ccc(O)cc3)CN2C(=O)c2ccccc2)cc1Br
RESULT: > 100 µM

---

# Test system: NCI-H522 lung
# Experimental protocol: NCI tumour cell line growth inhibition, 48 h; in the data active = GI50 below about 0.43 µM; inactive = the rest
Would you mind answering with one of these outcomes? yes (1) for active, no (0) for inactive

COC1/C=C/O[C@@]2(C)Oc3c(C)c(O)c4c(O)c(cc(O)c4c3C2=O)NC(=O)/C(C)=C\C=C\[C@H](C)C(O)[C@@H](C)[C@@H](O)[C@@H](C)[C@H](OC(C)=O)[C@@H]1C (stereo partly specified) : no (0)
Cc1cc(N(CCCl)CCCl)ccc1C=Nc1cccnc1 : no (0)
C=C1CC2CC[C@@]34C[C@@H]5O[C@@H]6C(O[C@H]7CC[C@H](CC(=O)OC8[C@@H](C)C9OC%10C[C@]%11(C[C@@H]%12O[C@@]%13(C[C@@H](C)[C@@H]%12O%11)C[C@H](C)[C@@H]%11OC%12CC(C(O)CO)OC%12C[C@@H]%11O%13)OC%10CC9O[C@H]8C[C@H]8O[C@@H](CC[C@@H]1O2)C[C@@H](C)C8=C)O[C@@H]7[C@@H]6O3)C5O4 (stereo partly specified) : yes (1)
CC(=O)[CH-]C(=O)c1ccccc1.CC(=O)[CH-]C(=O)c1ccccc1.[Nd+3].[OH-].[OH3+] : no (0)
CCC(=O)Sc1ccccc1C(=O)Nc1ccc(Cl)cc1 : no (0)
Cc1ccc(NS(=O)(=O)c2ccc(-c3cnc(C4CC4)o3)cc2)cc1 : no (0)
CCN(CC)c1ccc(NC(C(=O)c2ccccc2)c2ccccc2)cc1 (stereo unspecified) : no (0)
CN(C(=O)c1ccc(F)cc1C(F)(F)F)C1CCN(c2nnc(-c3ccnn3C)c3ccccc23)CC1 : no (0)

QUERY: Hello, I am checking results. What call was entered for OCC1SC(n2cnc3cncnc32)C(O)C1O (stereo unspecified) ?
RESULT: no (0)

QUERY: Hello, I am checking results. What call was entered for [Cu+2].[Cu+2].[O-]c1ccccc1C=Nc1ccccc1[O-].[O-]c1ccccc1C=Nc1ccccc1[O-] ?
RESULT: no (0)

QUERY: Hello, I am checking results. What call was entered for O=C(c1ccccc1)c1ccc(-c2ccc(O)cc2)cc1 ?
RESULT: no (0)

QUERY: Hello, I am checking results. What call was entered for CCCOC(=O)N[C@H]1CCc2c(Br)c(OC)c(OC)c(OC)c2-c2ccc(SC)c(=O)cc21 ?
RESULT: yes (1)

QUERY: Hello, I am checking results. What call was entered for O=C(CC12CC3CC(CC(C3)C1)C2)NCCOCCOCCNC(=O)c1cc2c(o1)C(=O)c1ccccc1C2=O ?
RESULT: no (0)

QUERY: Hello, I am checking results. What call was entered for Cn1ncc2cc(-c3cnc(N)c(Cl)c3N3CCC4(CCNC4=O)CC3)ccc21 ?
RESULT: no (0)

QUERY: Hello, I am checking results. What call was entered for Cc1ccc(S(=O)(=O)N(C)C)cc1[N+](=O)[O-] ?
RESULT: no (0)

QUERY: Hello, I am checking results. What call was entered for CC1(C)CCC(S(=O)(=O)c2ccc3c(c2)/C(=N\O)c2cc(S(=O)(=O)N4CCC(O)(c5cccc(C(F)(F)F)c5)CC4)ccc2-3)CC1 ?
RESULT: yes (1)

---

# Tested on: UO-31 renal
# Experimental protocol: NCI tumour cell line growth inhibition, 48 h; in the data active = GI50 below about 0.43 µM; inactive = the rest
Would you mind answering with one of these outcomes? T for active, F for inactive

A selection of reference data follows.
COc1ccc2c(c1)C(=O)c1c-2c(NCCCN(C)C)nc2ccccc12 : F
CN(C(=O)C1CCCCC1)c1ccccc1I(=O)=O : F
COc1cc2c(-c3nc4cc(Cl)c(F)cc4s3)cc(=O)oc2c(C)c1OC : T
C=C1C(=O)O[C@H]2[C@H]1CC/C(COC(=O)OCCCCCOC(=O)OC/C1=C/CC[C@@]3(C)O[C@H]3[C@H]3OC(=O)C(=C)[C@@H]3CC1)=C\CC[C@@]1(C)O[C@@H]21 : F
CC(=O)[CH-]C(=O)c1ccccc1.CC(=O)[CH-]C(=O)c1ccccc1.[Nd+3].[OH-].[OH3+] : F

QUERY: Hello, I am checking results. What call was entered for COc1ccc2c(c1)Oc1nc(N)c(C#N)c(N)c1C2Sc1ccc(SC)cc1 (stereo not given) ?
RESULT: F

QUERY: Hello, I am checking results. What call was entered for COc1ccc(-c2nc(-c3nc4ccc(F)cc4[nH]3)cc3c2[nH]c2ccccc23)cc1 ?
RESULT: F

QUERY: Hello, I am checking results. What call was entered for O=C(CC12CC3CC(CC(C3)C1)C2)NCCOCCOCCNC(=O)c1cc2c(o1)C(=O)c1ccccc1C2=O ?
RESULT: F

QUERY: Hello, I am checking results. What call was entered for C=C1CC2CC[C@@]34C[C@@H]5O[C@@H]6C(O[C@H]7CC[C@H](CC(=O)OC8[C@@H](C)C9OC%10C[C@]%11(C[C@@H]%12O[C@@]%13(C[C@@H](C)[C@@H]%12O%11)C[C@H](C)[C@@H]%11OC%12CC(C(O)CO)OC%12C[C@@H]%11O%13)OC%10CC9O[C@H]8C[C@H]8O[C@@H](CC[C@@H]1O2)C[C@@H](C)C8=C)O[C@@H]7[C@@H]6O3)C5O4 (stereo not given in full) ?
RESULT: F

QUERY: Hello, I am checking results. What call was entered for Cn1ncc2c(Nc3ccc(Br)cc3)nc(Nc3ccc(Br)cc3)nc21 ?
RESULT: F
